# Test system: CAF#3 (primary prostate cancer-associated fibroblasts of myCAF-like type)
# Assay: drug sensitivity score (DSS2, normalised partial AUC of dose-response, 72 h CellTiter-Glo viability) (DSS (dimensionless)); higher = more sensitive (stronger growth inhibition / cytotoxicity); extreme values may be limits of the assay
List of drug sensitivity score values.

{"Compound": "N#CC1(c2ccc(NC(=O)c3cccnc3NCc3ccncc3)cc2)CCCC1 [Apatinib] (tested concentration range 1-10000 nM)", "Target or test system": "CAF#3", "drug sensitivity score": 1.8}
{"Compound": "COc1cc(OC2CCN(C)CC2)ccc1Nc1ncc2c(n1)n(C1CCCC1)c(=O)n2C [AZ 3146] (tested concentration range 1-10000 nM)", "Target or test system": "CAF#3", "drug sensitivity score": 3.1}
{"Compound": "C[C@H]1C[C@@H]2[C@H]([C@@H](O)C[C@@]3(C)[C@H]2CC[C@]3(O)C(=O)CO)[C@@]2(C)C=CC(=O)C=C12 [Methylprednisolone] (tested concentration range 1-10000 nM)", "Target or test system": "CAF#3", "drug sensitivity score": 1.9}
{"Compound": "Cc1c(-c2ccc(N3CCc4cccc(C(=O)Nc5nc6ccccc6s5)c4C3)nc2C(=O)O)cnn1CC12CC3CC(CC(C3)C1)C2 (tested concentration range 0.1-1000 nM)", "Target or test system": "CAF#3", "drug sensitivity score": 0}
{"Compound": "O=c1[nH]c(C2CCCN2)nc2c1oc1ccc(Cl)cc12 (configuration not stated) (tested concentration range 1-10000 nM)", "Target or test system": "CAF#3", "drug sensitivity score": 1.6}

### Prompt Item CCn1c(=O)c(-c2ccc(Cl)cc2Cl)cc2cnc(Nc3ccc(N4CCNCC4)c(F)c3)nc21 [FRAX486] (tested concentration range 0.5-5000 nM) has what recorded drug sensitivity score?
### Response 9.1

### Prompt Next: CN(C)C/C=C/C(=O)Nc1cc2c(Nc3ccc(F)c(Cl)c3)ncnc2cc1O[C@H]1CCOC1 [Afatinib] (tested concentration range 0.1-1000 nM)
### Response 0

### Prompt CNC(=O)c1ccc(N2C(=S)N(c3ccc(C#N)c(C(F)(F)F)c3)C(=O)C2(C)C)cc1F [Enzalutamide] (tested concentration range 1-10000 nM) ?
### Response 0

### Prompt And what about the compound Nc1nccc(-c2c(-c3ccc(F)cc3)ncn2C2CCCCC2)n1 (tested concentration range 1-10000 nM) ?
### Response 2.1

### Prompt Now try CN(C)Cc1ccc(S(=O)(=O)n2ccc(/C=C/C(=O)NO)c2)cc1 [Resminostat] (tested concentration range 1-10000 nM) .
### Response 6

### Prompt Also need Cc1cnc(Nc2ccc(OCCN3CCCC3)cc2)nc1Nc1cccc(S(=O)(=O)NC(C)(C)C)c1 [Fedratinib] (tested concentration range 1-10000 nM) , thanks.
### Response 9.7

### Prompt What about this compound? COc1cc2nccc(Oc3ccc(NC(=O)NC4CC4)c(Cl)c3)c2cc1C(N)=O [Lenvatinib] (tested concentration range 0.2-2500 nM)
### Response 4.1

----------
# Test system: CAF#4 (primary prostate cancer-associated fibroblasts of iCAF-like type)
# Assay: drug sensitivity score (DSS2, normalised partial AUC of dose-response, 72 h CellTiter-Glo viability) (DSS (dimensionless)); higher = more sensitive (stronger growth inhibition / cytotoxicity); extreme values may be limits of the assay
Reported endpoint: drug sensitivity score
Please respond with just the number, no unit label.

{"Compound": "Nc1nccc(-c2c(-c3ccc(F)cc3)ncn2C2CCCCC2)n1 (tested concentration range 1-10000 nM)", "Reported endpoint": "drug sensitivity score", "Result number": 0.1}

### Prompt Look at this compound and give its reported drug sensitivity score. CCCS(=O)(=O)Nc1ccc(F)c(C(=O)c2c[nH]c3ncc(-c4ccc(Cl)cc4)cc23)c1F [Vemurafenib] (tested concentration range 1-10000 nM)
### Response 3

### Prompt Do the same for Nc1nc(NC2CC2)cc(-c2cccc(Cl)c2Cl)n1 [TH588] (tested concentration range 2.5-25000 nM) please
### Response 2.7

### Prompt Let us now turn to CC[C@H](Nc1ncnc2[nH]cnc12)c1nc2cccc(F)c2c(=O)n1-c1ccccc1 [Idelalisib] (tested concentration range 1-10000 nM)
### Response 5.6

Source of measurements: the supplement of paper PMC12592484
